This collection of values is drawn from ChEMBL document CHEMBL4507295.

# assaySystem: monoamine oxidase MAO-A (Homo sapiens)
# Sequence (P21397 whole entry): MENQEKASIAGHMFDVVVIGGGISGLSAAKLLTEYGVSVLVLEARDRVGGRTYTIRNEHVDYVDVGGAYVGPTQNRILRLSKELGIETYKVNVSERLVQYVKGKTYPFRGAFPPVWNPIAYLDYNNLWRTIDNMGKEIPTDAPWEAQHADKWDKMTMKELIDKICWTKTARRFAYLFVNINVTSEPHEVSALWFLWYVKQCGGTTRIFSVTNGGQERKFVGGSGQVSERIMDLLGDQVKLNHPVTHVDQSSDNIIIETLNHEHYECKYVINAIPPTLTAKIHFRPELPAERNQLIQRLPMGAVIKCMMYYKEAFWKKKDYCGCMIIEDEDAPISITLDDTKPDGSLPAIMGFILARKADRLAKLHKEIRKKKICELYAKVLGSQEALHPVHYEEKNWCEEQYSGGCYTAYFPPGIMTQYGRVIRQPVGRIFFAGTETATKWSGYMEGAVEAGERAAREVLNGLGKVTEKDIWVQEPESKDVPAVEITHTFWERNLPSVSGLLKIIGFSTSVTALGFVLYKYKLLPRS
# procedureText: Inhibition of Monoamine Oxidase MAO-A at compound concentration of 10.0 uM in the Eurofins-Panlabs enzyme assay (Eurofins_assay_140010)
# Parameters: substrate with concentration 50 uM Kynuramine, incubation time 60 min, incubation temperature 37 C
# measurementConditions: recombinant human MAO-A expressed in insect Hi5 cells, probe kynuramine (50 uM), compound concentration 10 uM
measure: inhibition at 60 min, 10 µM

Look up inhibition at 60 min, 10 µM: "N#CC1(c2ccccn2)CCN(Cc2cc(C(=O)O)c(=O)n3ccccc23)CC1"
12% (not active)
